test system: SF-539 CNS; assay: NCI tumour cell line growth inhibition, 48 h
property_label: TGI (µM)
Form entry: value (µM) — number only.

Check out these entries, answers already filled in.
Cc1ccc(-c2cc(-c3ccc(C)cc3)nc(NCCNc3ccnc4cc(Cl)ccc34)n2)cc1    3.6
O=C(c1ccccc1)C(CN1CCOCC1)c1ccccc1 (stereo not given)    4.47

Here's the next entry for you.
## Task Give the measured TGI of CCN(C(=O)N1CCN(c2cc3c(cc2F)c(=O)c(C(=O)O)cn3C2CC2)CC1)c1nc(-c2ccc(C)cc2)cs1 .
## Result 2.65

----------
test system: K-562 leukemia; test: NCI tumour cell line growth inhibition, 48 h; in the data active = GI50 below about 0.43 µM; inactive = the rest
The categories you may choose from are 1 (yes) = active, 0 (no) = inactive

Please review the following examples before continuing.
CC(C)(C)c1ccc(OCCCCCCN2CCNCC2)cc1    0 (no)
O=C(/C(=C/c1ccc([N+](=O)[O-])cc1)c1ccccc1)c1ccccc1    0 (no)
CN(C)c1ccc(/C=C\c2cccc[n+]2C)cc1    0 (no)
O=C(C1CCCCC1)[C@@H]1[C@]2(C(=O)NC3CCCCC32)[C@@H]2CCCN2[C@@]12C(=O)NC1CCC(Cl)CC12 (stereo partly drawn)    0 (no)
O=C1C(=O)c2c(nc3ccc(Cl)cn23)-c2ccccc21    1 (yes)
O=c1[nH]c2ccccc2nc1-c1c[nH]c2ccccc12    0 (no)
O=C1c2c(c3c4ccccc4[nH]c3c3ccc4ccccc4c23)C(=O)N1CCN1CCCCC1    0 (no)
C[C@]12CC[C@H]3[C@@H](CCC4=CC(=O)CC[C@@H]43)[C@@H]1CC[C@@H]2OC(=O)CCc1ccccc1    0 (no)
COc1ccc(-c2n[nH]nc2-c2cc(OC)c3c(c2OC)OCO3)cc1    1 (yes)
c1ccc2c(c1)c(NCCCCN1CCCCC1)cc1c3ccccc3c(NCCCCN3CCCCC3)cc21    0 (no)

## Task Would you mind telling me which call this test gave Cn1c2c(cc(S(=O)(=O)c3ccccc3)c1=O)CCc1c-2cnn1-c1ccc(Cl)cc1 ?
## Result 0 (no)

## Task Would you mind telling me which call this test gave C=CC(=O)N1CCN(c2ccc3cccc(NC(=O)c4cnc(C)cn4)c3n2)CC1 ?
## Result 0 (no)

## Task Would you mind telling me which call this test gave Cc1ccc(-c2cc(-c3ccc(C)cc3)nc(NCCNc3ccnc4cc(Cl)ccc34)n2)cc1 ?
## Result 0 (no)

## Task Would you mind telling me which call this test gave Cc1ccc(NC(=O)/C=C/c2ccccc2)c(C(N)=O)c1 ?
## Result 0 (no)

## Task Would you mind telling me which call this test gave Cc1cc2c3ccc(C)[n+](C)c3ccc2n1C ?
## Result 0 (no)

----------
test system: HOP-92 NSCLC; test: NCI tumour cell line growth inhibition, 48 h
property_label: GI50

Check out these entries, answers already filled in.
CN1CCN(Cc2ccc(NC(=O)c3cncc(C#Cc4cnc(N)c5ccncc45)c3)cc2C(F)(F)F)CC1    306 nM
CC(C)(C)c1ccc(OCCCCCCN2CCNCC2)cc1    3310 nM
C[C@]12CCC3[C@@H](CC[C@@H]4c5nonc5CC[C@]34C)C1CCC(=O)N2 (stereo partly specified)    40400 nM
COc1ccc(C2CC(c3cc(OC)c(OC)c(OC)c3)=NN2C(C)=O)cc1OCC(=O)Nc1nc2ccc(C(F)(F)F)cc2s1 (stereo unspecified)    1700 nM
CN(C)c1ccc(/C=C\c2cccc[n+]2C)cc1    4850 nM

Here's the next entry for you.
## Task Give the measured GI50 of C=CC(=O)N(C)[C@H]1C[C@H]2OC(C)(C1OC)n1c3ccccc3c3c4c(c5c6ccccc6n2c5c31)C(=O)NC4 (stereo partly specified) .
## Result 40.2 nM
